Each entry below carries its reported normalized area under the dose-response curve.
System: OCI-LY19 (cancer type: DLBCL)
Assay: normalized area under the dose-response curve (viability relative to DMSO control) (fraction); higher = less sensitive (more viable cells)
Settings: exposure time not given
Structures can show the parent of a compound that is named as a salt.
Write the number on its own, no unit after it.

Here's what some known entries look like.
molecule	quantitative-result
COc1cc2/c(=N/c3ccc(Br)cc3F)nc[nH]c2cc1OCC1CCN(C)CC1	0.969
Cn1ncc(Cl)c1-c1cc(C(=O)N[C@H](CN)Cc2cccc(F)c2)sc1Cl	0.739
O=C(/C=C/c1cccc(S(=O)(=O)Nc2ccccc2)c1)NO	0.38
C#Cc1cccc(Nc2ncnc3cc(OCCOC)c(OCCOC)cc23)c1 [Erlotinib hydrochloride]	0.864
COc1cc(Nc2ncc3c(n2)-c2ccc(Cl)cc2C(c2c(F)cccc2OC)=NC3)ccc1C(=O)O	0.853

Reported normalized area under the dose-response curve of CC(=O)OC[C@H]1O[C@@H]([S-])[C@H](OC(C)=O)[C@@H](OC(C)=O)[C@@H]1OC(C)=O.CCP(CC)CC.[Au+] : 0.344

Reported normalized area under the dose-response curve of Cc1nc(Nc2ncc(C(=O)Nc3c(C)cccc3Cl)s2)cc(N2CCN(CCO)CC2)n1 : 0.718

Reported normalized area under the dose-response curve of COc1cc2nccc(Oc3ccc(NC(=O)NC4CC4)c(Cl)c3)c2cc1C(N)=O : 0.87

---

Tested on: FR4 (cancer type: MM)
Test: normalized area under the dose-response curve (viability relative to DMSO control) (fraction); higher = less sensitive (more viable cells)
Conditions: exposure time not given
Counter-ions that a name gives are not always drawn.
Each entry below carries its reported normalized area under the dose-response curve.
Write the number on its own, no unit after it.

Here's what some known entries look like.
compound	quantitative-result
COc1cc(N2CCC(N3CCN(C)CC3)CC2)ccc1Nc1ncc(Cl)c(Nc2ccccc2P(C)(C)=O)n1	0.723
N[C@@H](Cc1ccc(N(CCCl)CCCl)cc1)C(=O)O [Melphalan hydrochloride]	0.919
Cc1ccc(-n2nc(C(C)(C)C)cc2NC(=O)Nc2ccc(OCCN3CCOCC3)c3ccccc23)cc1	0.932
Nc1nc(Cl)nc2c1ncn2[C@H]1C[C@H](O)[C@@H](CO)O1	1.01
Cc1ccc(F)c(NC(=O)Nc2ccc(-c3cccc4[nH]nc(N)c34)cc2)c1	0.441
Nc1cccc2c1C(=O)N(C1CCC(=O)NC1=O)C2=O (stereo unspecified) [Pomalidomide]	0.949
Cc1cc(Nc2ncc(Cl)c(Nc3ccccc3S(=O)(=O)C(C)C)n2)c(OC(C)C)cc1C1CCNCC1	0.403
O=C(/C=C/c1cccc(S(=O)(=O)Nc2ccccc2)c1)NO	0.428

Reported normalized area under the dose-response curve of N#CC[C@H](C1CCCC1)n1cc(-c2ncnc3[nH]ccc23)cn1 : 0.927

Reported normalized area under the dose-response curve of Cc1nc(Nc2ncc(C(=O)Nc3c(C)cccc3Cl)s2)cc(N2CCN(CCO)CC2)n1 : 0.816

Reported normalized area under the dose-response curve of O=C(c1ccc(F)c(F)c1Nc1ccc(I)cc1F)N1CC(O)([C@@H]2CCCCN2)C1 : 0.696

Reported normalized area under the dose-response curve of O=C(c1ccc(OCCN2CCCCC2)cc1)c1c(-c2ccc(O)cc2)sc2cc(O)ccc12 : 0.896

Reported normalized area under the dose-response curve of Nc1nc(Cl)nc2c1ncn2[C@@H]1O[C@H](CO)[C@@H](O)[C@@H]1F : 0.973
